tested.system: ER-α in MCF-7 cells (Homo sapiens)
Sequence (P03372 1-595): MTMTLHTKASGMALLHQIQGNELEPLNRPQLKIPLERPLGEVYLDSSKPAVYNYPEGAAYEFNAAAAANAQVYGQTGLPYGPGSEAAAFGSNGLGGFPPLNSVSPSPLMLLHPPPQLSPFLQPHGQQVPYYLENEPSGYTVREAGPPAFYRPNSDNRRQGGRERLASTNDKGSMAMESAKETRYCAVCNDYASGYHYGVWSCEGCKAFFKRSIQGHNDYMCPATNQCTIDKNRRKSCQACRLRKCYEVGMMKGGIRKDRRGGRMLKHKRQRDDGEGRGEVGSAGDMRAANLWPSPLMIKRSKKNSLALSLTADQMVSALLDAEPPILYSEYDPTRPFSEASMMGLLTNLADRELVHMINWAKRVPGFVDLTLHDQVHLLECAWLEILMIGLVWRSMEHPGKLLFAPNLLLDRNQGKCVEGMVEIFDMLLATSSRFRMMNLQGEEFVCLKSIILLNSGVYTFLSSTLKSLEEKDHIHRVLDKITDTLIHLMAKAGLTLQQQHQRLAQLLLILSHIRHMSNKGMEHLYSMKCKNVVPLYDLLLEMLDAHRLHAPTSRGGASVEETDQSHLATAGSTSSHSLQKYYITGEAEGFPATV
assay.overview: Breast cancer cell ER-α in cell western assay (SP1)
Format: cell-based
Design: endogenous in cells; host or cells: MCF-7
cond: SP1 antibody, 4 or 24 hr post compound addition, read-out: ER-α In Cell Western Assay (SP1) IC50
Reported DC50 values for a set of compounds

compound	DC50
CC/C(=C(/c1ccc(/C=C/C(=O)O)cc1)c1ccc2[nH]ncc2c1)c1ccc2sncc2c1 [Compound 314]	≤ 100 nM
CC/C(=C(/c1ccc(/C=C/C(=O)O)cc1)c1ccc2[nH]ncc2c1F)c1ccc(Oc2ccccn2)cc1 [Compound 296]	≤ 100 nM
O=C(O)/C=C/c1ccc(/C(=C(\c2ccc(F)cc2Cl)C2CCC2)c2ccc3scnc3c2)cc1 [Compound 278]	≤ 100 nM
CC/C(=C(/c1ccc(/C=C/C(=O)O)cc1)c1ccc2[nH]ncc2c1)c1cccc(-c2ccccn2)c1 [Compound 390]	≤ 100 nM
CC/C(=C(/c1ccc(/C=C/C(=O)O)cc1)c1cc(F)c2[nH]ccc2c1)c1ccc(F)cc1Cl [Compound 254]	≤ 100 nM
CC/C(=C(/c1ccc2cc(/C=C/C(=O)O)ccc2c1)c1ccc2[nH]ncc2c1)c1ccccc1 [Compound 180]	≤ 100 nM
CC/C(=C(/c1ccc(/C=C/C(=O)O)cc1)c1ccc2[nH]ncc2c1)c1cccc(N2CCCC2)c1 [Compound 249]	≤ 100 nM

====

System: MCF-7 cells
assay.overview: Breast cancer cell viability assay (CellTiter-Glo, 5 days)
Format: cell-based
cond: Homo sapiens, MCF7, 120 h, 5 days' compound exposure
# IC50 annotations

structure.smiles	IC50
CC/C(=C(/c1ccc(/C=C/C(=O)O)cc1)c1ccc2[nH]ncc2c1)c1cccc2ccccc12	≤ 100 nM
CC/C(=C(/c1ccc(/C=C/C(=O)O)cc1)c1ccc2[nH]ncc2c1)c1cccc(Oc2ccccc2C)c1	≤ 100 nM
CC/C(=C(/c1ccc(/C=C/C(=O)O)cc1)c1ccc2[nH]ncc2c1)c1cccc(Oc2ccccc2F)c1	≤ 100 nM
O=C(O)/C=C/c1ccc(/C(=C(\c2ccccc2)C2CC2)c2cccc3[nH]ncc23)cc1	≤ 100 nM
Cc1cscc1/C(=C(\c1ccc(/C=C/c2nn[nH]n2)cc1)c1ccc2scnc2c1)C1CCC1	≤ 100 nM
CC/C(=C(/c1ccc(/C=C/C(=O)NC)cc1)c1ccc2[nH]ncc2c1)c1ccc(F)cc1Cl	≤ 100 nM
CC/C(=C(/c1ccc(/C=C/C(=O)NS(=O)(=O)c2ccccc2)cc1)c1ccc2[nH]ncc2c1)c1ccc(F)cc1Cl	≤ 100 nM
CC/C(=C(/c1ccc(/C=C/S(N)(=O)=O)cc1)c1ccc2[nH]ncc2c1)c1ccccc1	≤ 100 nM
CC/C(=C(/c1ccc(/C=C/C(=O)O)cc1)c1ccc2[nH]ncc2c1)c1sccc1C	≤ 100 nM
CC/C(=C(/c1ccc(/C=C/C(=O)O)cc1)c1cnn2ccccc12)c1ccccc1	> 100 nM
CC/C(=C(/c1ccc(/C=C/C(=O)O)cc1)c1ccc2[nH]ncc2c1)c1ccncc1C#N	> 100 nM
CC/C(=C(/c1ccc(/C=C/C(=O)O)cc1)c1coc2c(O)cccc12)c1ccc(F)cc1Cl	≤ 100 nM
CC/C(=C(/c1ccc(/C=C/C(=O)O)cc1)c1ccc2[nH]ncc2c1)c1cccc(OCc2ccccc2)c1	≤ 100 nM
CC/C(=C(/c1ccc(/C=C/C(=O)O)cc1)c1ccc2[nH]ncc2c1)c1cccc(CC(=O)O)c1	> 100 nM
CC/C(=C(/c1ccc(/C=C/C(=O)O)cc1)c1ccc2scnc2c1)c1ccccc1	≤ 100 nM

====

Tested on: MCF-7 cells
assay.overview: Breast cancer cell viability assay (CellTiter-Glo, 5 days)
Format: cell-based
cond: Homo sapiens, MCF7, 120 h, 5 days' compound exposure
IC50 listing for selected compounds.

structure.smiles	tested.system	IC50
Cc1cscc1/C(CC(C)C)=C(\c1ccc(/C=C/C(=O)O)cc1)c1ccc2[nH]ncc2c1	MCF-7 cells	≤ 100 nM
CC/C(=C(/c1ccc(/C=C/C(=O)O)cc1)c1ccc2[nH]ncc2c1)c1ccc(S(=O)(=O)C(F)(F)F)cc1	MCF-7 cells	> 100 nM
CC/C(=C(/c1ccc(/C=C/C(=O)O)cc1)c1ccc2[nH]ncc2c1)c1cnccn1	MCF-7 cells	> 100 nM
CC/C(=C(/c1ccc(OCC(=O)O)cc1)c1ccc2[nH]ncc2c1)c1ccccc1	MCF-7 cells	> 100 nM
CC/C(=C(/c1ccc(/C=C/C(=O)O)cc1)c1cccc2[nH]ncc12)c1ccc(F)cc1Cl	MCF-7 cells	≤ 100 nM
O=C(/C=C/c1ccc(/C(=C(\c2ccccc2)C2CCC2)c2ccc3[nH]nc(F)c3c2)cc1)NCC(F)(F)F	MCF-7 cells	≤ 100 nM
CC/C(=C(/c1ccc(/C=C/C(=O)O)cc1)c1ccc2scnc2c1)c1ccccc1C	MCF-7 cells	≤ 100 nM
CC/C(=C(/c1ccc(CCC(=O)O)cc1)c1ccc2[nH]ncc2c1)c1ccccc1	MCF-7 cells	> 100 nM

====

Listed below: IC50 values for each entry.
Test system: MCF-7 cells
assay.overview: Breast cancer cell viability assay (CellTiter-Glo, 5 days)
Assay type: cell-based
cond: Homo sapiens, MCF7, 120 h, 5 days' compound exposure

structure.smiles	IC50
CC/C(=C(/c1ccc(/C=C/C(=O)O)cc1)c1ccc2[nH]ncc2c1)c1cccs1	≤ 100 nM
CC/C(=C(/c1ccc(/C=C/c2noc(=S)[nH]2)cc1)c1ccc2[nH]ncc2c1)c1ccc(F)cc1Cl	≤ 100 nM
CC/C(=C(/c1ccc(/C=C/C(=O)O)cc1)c1coc2c(OC)cccc12)c1ccccc1	≤ 100 nM
CC/C(=C(/c1ccc(/C=C/C(=O)O)cc1)c1ccc2[nH]ncc2c1)c1ccc2cnn(C)c2c1	> 100 nM
CC/C(=C(/c1ccc(/C=C/C(=O)O)cc1)c1cc(F)c2[nH]ncc2c1)c1cc[n+]([O-])cc1Cl	> 100 nM
CC/C(=C(/c1ccc(/C=C/C(=O)O)cc1)c1ccc2scnc2c1)c1ccc(F)cc1	> 100 nM
CC/C(=C(/c1ccc(/C=C/C(=O)O)cc1)c1cccc2[nH]ncc12)c1ccccc1Cl	≤ 100 nM
CC/C(=C(/c1ccc(/C=C/c2noc(=S)[nH]2)cc1)c1ccc2[nH]ncc2c1)c1ccccc1	≤ 100 nM
CCCCCCOc1cccc(/C(CC)=C(\c2ccc(/C=C/C(=O)O)cc2)c2ccc3[nH]ncc3c2)c1	> 100 nM
CC/C(=C(/c1ccc(/C=C/C(=O)O)cc1)c1ccc2scnc2c1)c1ccc(F)cc1Cl	≤ 100 nM
CCOC(=O)/C=C/c1ccc(/C(=C(/CC)c2ccccc2)c2cccc3[nH]ncc23)cc1	≤ 100 nM
CC/C(=C(/c1ccc(/C=C/c2nn[nH]n2)cc1)c1ccc2[nH]ncc2c1)c1ccccc1Cl	≤ 100 nM
CC/C(=C(/c1ccc(/C=C/C(=O)O)cc1)c1ccc2[nH]ncc2c1)c1cccc(Oc2ccccn2)c1	≤ 100 nM
CC/C(=C(/c1ccc(/C=C/C(=O)O)cc1)c1ccc2[nH]ncc2c1F)c1cccc(OC2CCN(C)CC2)c1	> 100 nM
CC/C(=C(/c1ccc(/C=C/C(=O)Nc2nn[nH]n2)cc1)c1ccc2[nH]ncc2c1)c1ccc(F)cc1Cl	≤ 100 nM
CC/C(=C(/c1ccc(/C=C/C(=O)NS(C)(=O)=O)cc1)c1ccc2[nH]ncc2c1)c1ccc(F)cc1Cl	≤ 100 nM
CC/C(=C(/c1ccc(/C=C/C(=O)O)cc1)c1ccc2nccn2c1)c1ccccc1	> 100 nM
CC/C(=C(/c1ccc(/C=C/C(=O)O)cc1)c1ccc2[nH]ncc2c1)c1cc(C)sc1C	≤ 100 nM
CC/C(=C(/c1ccc(/C=C/C(=O)O)cc1)c1ccc2[nH]ncc2c1)c1ccc(F)c(Oc2ccccc2)c1	≤ 100 nM
CC/C(=C(/c1ccc(/C=C/C(=O)O)cc1)c1ccc2[nH]ncc2c1)c1cccc(Oc2nccs2)c1	≤ 100 nM
CC/C(=C(/c1ccc(/C=C/C(=O)O)cc1)c1ccc2[nH]ncc2c1)c1ccc(-c2cnsc2)cc1	> 100 nM
CC/C(=C(/c1ccc(/C=C/C(=O)O)cc1)c1ccc2[nH]ncc2c1)c1ccc(-c2cscn2)cc1	> 100 nM
CC/C(=C(/c1ccc(/C=C/C(=O)O)cc1)c1ccc2[nH]ncc2c1)c1ccc(CC(=O)O)cc1	> 100 nM
CC/C(=C(/c1ccc(/C=C/C(=O)O)cc1)c1ccc2[nH]ncc2c1)c1ccc2cn[nH]c2c1	> 100 nM
CC/C(=C(/c1ccc(/C=C/C(=O)O)cc1)c1ccc2[nH]ncc2c1)c1cccc(N2CCCC2)c1	> 100 nM
CC/C(=C(/c1ccc(/C=C/C(=O)O)cc1)c1ccc2[nH]ccc2c1)c1ccccc1	≤ 100 nM
CC/C(=C(/c1ccc(/C=C/C(=O)O)cc1)c1ccc2[nH]ncc2c1)c1cccc(Oc2ccc(C(F)(F)F)cn2)c1	≤ 100 nM
Cc1cscc1/C(=C(\c1ccc(/C=C/C(=O)O)cc1)c1ccc2[nH]nc(F)c2c1)C1CCC1	≤ 100 nM
CNC(=O)/C=C/c1ccc(/C(=C(\c2ccccc2)C2CCC2)c2ccc3c(cnn3C)c2)cc1	≤ 100 nM
